Task for the reader: assign each of the following binders its reported binding signal.
Molecular target: AGO2 T357M (Homo sapiens, UniProt Q9UKV8 1-859, T357M;S387D;S824A;S828D;S831D;S834A)
Sequence (Q9UKV8 whole entry T357M/S387D/S824A/S828D/S831D/S834A): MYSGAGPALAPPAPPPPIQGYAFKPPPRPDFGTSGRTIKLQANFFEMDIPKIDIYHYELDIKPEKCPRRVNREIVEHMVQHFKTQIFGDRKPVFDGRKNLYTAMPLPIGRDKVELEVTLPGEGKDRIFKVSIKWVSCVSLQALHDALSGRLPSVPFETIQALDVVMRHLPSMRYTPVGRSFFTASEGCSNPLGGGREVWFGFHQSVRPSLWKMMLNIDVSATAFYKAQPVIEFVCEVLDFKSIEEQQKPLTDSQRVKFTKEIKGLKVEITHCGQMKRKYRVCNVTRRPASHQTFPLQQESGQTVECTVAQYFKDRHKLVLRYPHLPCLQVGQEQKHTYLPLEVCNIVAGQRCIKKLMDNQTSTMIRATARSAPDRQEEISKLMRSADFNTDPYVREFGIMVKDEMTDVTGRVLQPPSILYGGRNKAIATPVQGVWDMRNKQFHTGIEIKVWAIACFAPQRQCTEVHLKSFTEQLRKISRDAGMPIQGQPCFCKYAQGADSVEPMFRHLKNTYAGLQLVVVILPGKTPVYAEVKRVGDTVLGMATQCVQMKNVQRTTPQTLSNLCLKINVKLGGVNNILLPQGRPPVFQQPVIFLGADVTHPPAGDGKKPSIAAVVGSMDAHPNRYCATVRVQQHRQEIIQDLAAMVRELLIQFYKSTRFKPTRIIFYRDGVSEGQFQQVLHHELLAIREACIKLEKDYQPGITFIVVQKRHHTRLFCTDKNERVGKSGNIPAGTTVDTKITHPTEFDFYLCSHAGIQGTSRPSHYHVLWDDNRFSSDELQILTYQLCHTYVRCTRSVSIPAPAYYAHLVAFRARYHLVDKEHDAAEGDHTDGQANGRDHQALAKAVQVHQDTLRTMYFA
Experiment: RNA Bind-n-Seq (nitrocellulose filter binding and sequencing); miR-122 guide loaded in AGO2; 60 min incubation; 30 mM Tris pH 8.0, 100 mM potassium acetate, 2 mM magnesium acetate, 0.5 mM TCEP, 0.005% NP-40, 0.01 mg/ml yeast tRNA; 3 nM AGO2-miR-122, 100 nM RNA library; 60; high values mean tight binding
Conditions: protein: recombinant; tags: His6 (N-terminal, pFastBac HTA)

Some binders with recorded binding signal:
binding signal recorded for this binder, ATGCTCTA (ssRNA, constant regions annealed to DNA blockers; guide miR-122 5' phosphate) RNA 1: GAGUUCUACAGUCCGACGAUCCCAACAUGCUCUACACCUGGAAUUCUCGGGUGCCAA RNA 2: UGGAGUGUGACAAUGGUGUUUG DNA 1: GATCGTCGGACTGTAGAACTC DNA 2: TTGGCACCCGAGAATTCCA , is 0.526 fold enrichment over input

binding signal recorded for this binder, ACATCCTG (ssRNA, constant regions annealed to DNA blockers; guide miR-122 5' phosphate) RNA 1: GAGUUCUACAGUCCGACGAUCCCAACACAUCCUGCACCUGGAAUUCUCGGGUGCCAA RNA 2: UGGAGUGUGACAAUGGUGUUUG DNA 1: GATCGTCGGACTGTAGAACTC DNA 2: TTGGCACCCGAGAATTCCA , is 0.475 fold enrichment over input

binding signal recorded for this binder, GCATTTTA (ssRNA, constant regions annealed to DNA blockers; guide miR-122 5' phosphate) RNA 1: GAGUUCUACAGUCCGACGAUCCCAACGCAUUUUACACCUGGAAUUCUCGGGUGCCAA RNA 2: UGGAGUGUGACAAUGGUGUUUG DNA 1: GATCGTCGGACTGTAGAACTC DNA 2: TTGGCACCCGAGAATTCCA , is 0.643 fold enrichment over input

Next:
binding signal recorded for this binder, ATATCCCG (ssRNA, constant regions annealed to DNA blockers; guide miR-122 5' phosphate) RNA 1: GAGUUCUACAGUCCGACGAUCCCAACAUAUCCCGCACCUGGAAUUCUCGGGUGCCAA RNA 2: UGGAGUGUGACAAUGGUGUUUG DNA 1: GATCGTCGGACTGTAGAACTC DNA 2: TTGGCACCCGAGAATTCCA , is 0.422 fold enrichment over input
